- settings: in isopropanol, 298.16 K
measured parameter: solubility (mole fraction)
Kindly provide the number alone.

[Q] Using the record for `CN(C)CCC=C1c2ccccc2CCc2ccccc21.Cl` , report its solubility (mole fraction).
[A] 0.0133

* * *

- settings: in n-butanol, 318.16 K
measured parameter: solubility (mole fraction)

[Q] Using the record for `CN(C)CCC=C1c2ccccc2CCc2ccccc21.Cl` , report its solubility (mole fraction).
[A] 0.0953

* * *

- settings: in acetone, 288.13 K
measured parameter: solubility (mole fraction)
Kindly provide the number alone.

[Q] Using the record for `CN(C)CCC=C1c2ccccc2CCc2ccccc21.Cl` , report its solubility (mole fraction).
[A] 0.00252

* * *

- settings: in sec-butanol, 318.17 K
measured parameter: solubility (mole fraction)
Kindly provide the number alone.

[Q] Using the record for `CN(C)CCC=C1c2ccccc2CCc2ccccc21.Cl` , report its solubility (mole fraction).
[A] 0.0483

* * *

- settings: in isopentanol, 303.23 K
measured parameter: solubility (mole fraction)

[Q] Using the record for `CN(C)CCC=C1c2ccccc2CCc2ccccc21.Cl` , report its solubility (mole fraction).
[A] 0.0326

* * *

- settings: in n-pentanol, 293.21 K
measured parameter: solubility (mole fraction)

[Q] Using the record for `CN(C)CCC=C1c2ccccc2CCc2ccccc21.Cl` , report its solubility (mole fraction).
[A] 0.0456

* * *

- settings: in n-propanol, 298.1 K
measured parameter: solubility (mole fraction)

[Q] Using the record for `CN(C)CCC=C1c2ccccc2CCc2ccccc21.Cl` , report its solubility (mole fraction).
[A] 0.0557

* * *

- settings: in acetone, 303.21 K
measured parameter: solubility (mole fraction)
Kindly provide the number alone.

[Q] Using the record for `CN(C)CCC=C1c2ccccc2CCc2ccccc21.Cl` , report its solubility (mole fraction).
[A] 0.00354

* * *

- settings: in isopropanol, 313.54 K
measured parameter: solubility (mole fraction)
Kindly provide the number alone.

[Q] Using the record for `CN(C)CCC=C1c2ccccc2CCc2ccccc21.Cl` , report its solubility (mole fraction).
[A] 0.034

* * *

- settings: in acetone, 308.19 K
measured parameter: solubility (mole fraction)
Kindly provide the number alone.

[Q] Using the record for `CN(C)CCC=C1c2ccccc2CCc2ccccc21.Cl` , report its solubility (mole fraction).
[A] 0.00398

* * *

- settings: in isopentanol, 298.2 K
measured parameter: solubility (mole fraction)
Kindly provide the number alone.

[Q] Using the record for `CN(C)CCC=C1c2ccccc2CCc2ccccc21.Cl` , report its solubility (mole fraction).
[A] 0.0256

* * *

- settings: in isopentanol, 283.17 K
measured parameter: solubility (mole fraction)
Kindly provide the number alone.

[Q] Using the record for `CN(C)CCC=C1c2ccccc2CCc2ccccc21.Cl` , report its solubility (mole fraction).
[A] 0.0122

* * *

- settings: in isopentanol, 318.2 K
measured parameter: solubility (mole fraction)

[Q] Using the record for `CN(C)CCC=C1c2ccccc2CCc2ccccc21.Cl` , report its solubility (mole fraction).
[A] 0.0671

* * *

- settings: in n-propanol, 283.17 K
measured parameter: solubility (mole fraction)
Kindly provide the number alone.

[Q] Using the record for `CN(C)CCC=C1c2ccccc2CCc2ccccc21.Cl` , report its solubility (mole fraction).
[A] 0.0266

* * *

- settings: in isopropanol, 323.3 K
measured parameter: solubility (mole fraction)
Kindly provide the number alone.

[Q] Using the record for `CN(C)CCC=C1c2ccccc2CCc2ccccc21.Cl` , report its solubility (mole fraction).
[A] 0.0592

* * *

- settings: in acetonitrile, 313.17 K
measured parameter: solubility (mole fraction)

[Q] Using the record for `CN(C)CCC=C1c2ccccc2CCc2ccccc21.Cl` , report its solubility (mole fraction).
[A] 0.0183

* * *

- settings: in acetonitrile, 308.13 K
measured parameter: solubility (mole fraction)
Kindly provide the number alone.

[Q] Using the record for `CN(C)CCC=C1c2ccccc2CCc2ccccc21.Cl` , report its solubility (mole fraction).
[A] 0.0157

* * *

- settings: in n-propanol, 303.07 K
measured parameter: solubility (mole fraction)

[Q] Using the record for `CN(C)CCC=C1c2ccccc2CCc2ccccc21.Cl` , report its solubility (mole fraction).
[A] 0.0691

These data points were gathered from BigSolDB 2.1.
